Values from patent US12221406B2

- tested-on: NLRP3 inflammasome (Mus musculus)
- test-details: IL-1β release from J774A.1 cells upon LPS/ATP stimulation (ELISA)
pIC50: −log10 of the molar value.
Let's look at some compounds and their measured pIC50.

{"structure-string": "C#CCNS(=O)(=O)c1ccc(CCN(Cc2cc(Cl)ccc2O)C(=O)Cc2ccsc2)cc1", "tested-on": "NLRP3 inflammasome (Mus musculus)", "pIC50": "> 6.00"}
{"structure-string": "CCCCN(CCCC)S(=O)(=O)c1ccc(CCN(Cc2cc(Cl)ccc2OC)C(=O)Cc2ccccc2)cc1", "tested-on": "NLRP3 inflammasome (Mus musculus)", "pIC50": "5.00 to 6.00"}
{"structure-string": "CCCOc1ccc(Cl)cc1CN(CCc1ccc(C(=O)OC)cc1)C(=O)Cc1ccccc1", "tested-on": "NLRP3 inflammasome (Mus musculus)", "pIC50": "> 6.00"}

Moving on to the next compound.
Look at this compound and give its reported pIC50. `C#CCNS(=O)(=O)c1ccc(CCN(Cc2cc(Cl)ccc2OCCC)C(C)C)cc1`
5.00 to 6.00

====

- tested-on: NLRP3 inflammasome (Mus musculus)
- test-details: IL-1β release from J774A.1 cells upon LPS/ATP stimulation (ELISA)
pIC50: −log10 of the molar value.
Let's look at some compounds and their measured pIC50.

Please review the entries below; each comes with its answer.
{"compound": "CCCOc1ccc(Cl)cc1CN(CCc1ccc(S(=O)(=O)N2CCOCC2)cc1)C(=O)Cc1ccsc1", "pIC50": "> 6.00"}
{"compound": "CCC(=O)N(CCc1ccc(S(=O)(=O)NC)cc1)Cc1cc(Cl)ccc1OC", "pIC50": "5.00 to 6.00"}
{"compound": "C#CCNS(=O)(=O)c1ccc(CCN(Cc2cc(Cl)ccc2OCCC)C(=O)[C@@H]2CCCN2)cc1", "pIC50": "5.00 to 6.00"}
{"compound": "COc1ccc(CNS(=O)(=O)c2ccc(CCN(Cc3cc(Cl)ccc3OC)C(=O)Cc3ccccc3)cc2)cc1", "pIC50": "> 6.00"}

Look at this compound and give its reported pIC50. `CCOc1ccc(Cl)cc1CN(CCc1ccc(S(=O)(=O)NCc2ccc(OC)cc2)cc1)C(=O)Cc1ccccc1`
5.00 to 6.00

Look at this compound and give its reported pIC50. `COc1ccc(CNS(=O)(=O)c2ccc(CCN(Cc3cc(Cl)ccc3OCc3ccccc3)C(=O)Cc3ccccc3)cc2)cc1`
5.00 to 6.00

Look at this compound and give its reported pIC50. `C#CCNS(=O)(=O)c1ccc(CCN(Cc2cc(Cl)ccc2OCCC)C(=O)[C@@H](N)Cc2ccsc2)cc1`
> 6.00

Look at this compound and give its reported pIC50. `C#CCCC1(CCOc2ccc(Cl)cc2CN(CCc2ccc(S(=O)(=O)NCC#C)cc2)C(=O)Cc2ccsc2)N=N1`
> 6.00

Look at this compound and give its reported pIC50. `C=CC(=O)N(CCc1ccc(S(=O)(=O)NCc2ccc(OC)cc2)cc1)Cc1cc(Cl)ccc1OC`
> 6.00

Look at this compound and give its reported pIC50. `CNS(=O)(=O)c1ccc(CCN(Cc2cc(Cl)ccc2OC)C(=O)Cc2ccccc2)cc1`
> 6.00

====

- tested-on: NLRP3 inflammasome (Mus musculus)
- test-details: IL-1β release from J774A.1 cells upon LPS/ATP stimulation (ELISA)
Let's look at some compounds and their measured IC50.

Please review the entries below; each comes with its answer.
{"compound": "C#CCNS(=O)(=O)c1ccc(CCN(Cc2cc(Cl)ccc2N)C(=O)Cc2ccsc2)cc1", "IC50": "1 to 10 µM"}
{"compound": "C#CCNS(=O)(=O)c1ccc(CCN(Cc2cc(Cl)ccc2OCCC)C(=O)[C@H](N)c2ccsc2)cc1", "IC50": "1 to 10 µM"}

Look at this compound and give its reported IC50. `CCCN(CCc1ccc(S(=O)(=O)NC)cc1)Cc1cc(Cl)ccc1OC`
1 to 10 µM

====

Let's look at some molecules and their measured pIC50.
- tested-on: NLRP3 inflammasome (Mus musculus, UniProt Q8R4B8)
- Sequence (Q8R4B8 whole entry): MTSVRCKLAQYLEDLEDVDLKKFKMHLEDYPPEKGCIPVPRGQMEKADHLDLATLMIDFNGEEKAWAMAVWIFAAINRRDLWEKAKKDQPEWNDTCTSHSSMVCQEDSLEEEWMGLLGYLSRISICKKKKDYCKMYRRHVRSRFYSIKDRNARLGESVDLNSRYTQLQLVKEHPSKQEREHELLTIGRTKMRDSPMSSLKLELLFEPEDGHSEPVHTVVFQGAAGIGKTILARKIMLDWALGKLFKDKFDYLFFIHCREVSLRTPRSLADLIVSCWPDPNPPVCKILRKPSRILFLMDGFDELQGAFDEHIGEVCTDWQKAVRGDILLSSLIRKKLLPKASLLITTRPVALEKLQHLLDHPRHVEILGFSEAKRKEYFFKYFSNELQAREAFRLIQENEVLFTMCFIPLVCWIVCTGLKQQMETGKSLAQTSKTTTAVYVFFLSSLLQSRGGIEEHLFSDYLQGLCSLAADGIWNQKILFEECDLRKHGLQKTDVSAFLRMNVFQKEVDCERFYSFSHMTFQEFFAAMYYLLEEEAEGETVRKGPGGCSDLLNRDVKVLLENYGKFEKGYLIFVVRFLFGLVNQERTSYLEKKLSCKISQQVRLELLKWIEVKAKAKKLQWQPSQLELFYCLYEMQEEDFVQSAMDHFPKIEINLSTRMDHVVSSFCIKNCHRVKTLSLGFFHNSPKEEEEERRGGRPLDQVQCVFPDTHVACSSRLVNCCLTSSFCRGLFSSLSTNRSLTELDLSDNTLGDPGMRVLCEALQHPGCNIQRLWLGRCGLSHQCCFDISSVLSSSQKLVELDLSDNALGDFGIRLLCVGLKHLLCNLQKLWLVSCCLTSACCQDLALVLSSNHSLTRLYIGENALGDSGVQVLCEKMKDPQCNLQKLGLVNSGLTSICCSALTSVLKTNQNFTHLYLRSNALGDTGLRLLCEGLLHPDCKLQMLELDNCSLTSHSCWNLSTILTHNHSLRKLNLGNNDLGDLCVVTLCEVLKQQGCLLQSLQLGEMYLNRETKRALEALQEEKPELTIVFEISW
- test-details: IL-1β release from J774A.1 cells upon LPS/ATP stimulation (ELISA)
pIC50: −log10 of the molar value.

Please review the entries below; each comes with its answer.
{"molecule": "O=C(NCCc1ccc(S(=O)(=O)NCc2ccccc2)cc1)c1cc(Cl)ccc1C(=O)c1ccccc1", "pIC50": "> 6.00"}
{"molecule": "C#CCNS(=O)(=O)c1ccc(CCN(Cc2cc(Cl)ccc2OCCC)C(=O)C(N)C(C)C)cc1 (stereo not drawn)", "pIC50": "5.00 to 6.00"}
{"molecule": "COc1ccc(Cl)cc1C(=O)NCCc1ccc(S(=O)(=O)NCCOCCOCCCCCCCl)cc1", "pIC50": "5.00 to 6.00"}
{"molecule": "C#CCNS(=O)(=O)c1ccc(CCN(Cc2cc(Cl)ccc2OCCC)C(=O)[C@H]2NCCS2)cc1", "pIC50": "5.00 to 6.00"}
{"molecule": "C#CCNS(=O)(=O)c1ccc(CCN(Cc2cccc3c2OCO3)C(=O)Cc2ccsc2)cc1", "pIC50": "> 6.00"}

Moving on to the next molecule.
Look at this molecule and give its reported pIC50. `CCCOc1ccc(Cl)cc1CN(CCc1ccc(C(=O)OC)cc1)C(=O)Cc1ccsc1`
5.00 to 6.00

====

- tested-on: NLRP3 inflammasome (Mus musculus, UniProt Q8R4B8)
- test-details: IL-1β release from J774A.1 cells upon LPS/ATP stimulation (ELISA)
pIC50: −log10 of the molar value.
readout-label: pIC50

{"molecule": "O=C(NCCc1ccc(S(=O)(=O)NCc2ccccc2)cc1)c1cc(Cl)ccc1C(O)c1ccccc1 (stereo not shown)", "pIC50": "5.00 to 6.00"}

Item: `CCCCCCCOc1ccc(Cl)cc1CN(CCc1ccc(S(=O)(=O)NCc2ccc(OC)cc2)cc1)C(=O)Cc1ccccc1` Test system: NLRP3 inflammasome (Mus musculus, UniProt Q8R4B8) Read-out: pIC50 Value: ?
< 4.52

Item: `COc1ccc(CNS(=O)(=O)c2ccc(CCN(Cc3cc(Cl)ccc3OCC3CC3)C(=O)Cc3ccccc3)cc2)cc1` Test system: NLRP3 inflammasome (Mus musculus, UniProt Q8R4B8) Read-out: pIC50 Value: ?
5.00 to 6.00

Item: `C=CCN(CCc1ccc(S(=O)(=O)NC)cc1)Cc1cc(Cl)ccc1OC` Test system: NLRP3 inflammasome (Mus musculus, UniProt Q8R4B8) Read-out: pIC50 Value: ?
5.00 to 6.00

Item: `CCCCN(CCCC)S(=O)(=O)c1ccc(CCN(Cc2cc(Cl)ccc2OCCC)C(=O)Cc2ccccc2)cc1` Test system: NLRP3 inflammasome (Mus musculus, UniProt Q8R4B8) Read-out: pIC50 Value: ?
< 4.52

Item: `C#CCNS(=O)(=O)c1ccc(CCN(Cc2cc(Cl)ccc2OCCC)C(=O)[C@H]2CCCN2)cc1` Test system: NLRP3 inflammasome (Mus musculus, UniProt Q8R4B8) Read-out: pIC50 Value: ?
5.00 to 6.00

====

- tested-on: NLRP3 inflammasome (Mus musculus, UniProt Q8R4B8)
- test-details: IL-1β release from J774A.1 cells upon LPS/ATP stimulation (ELISA)
readout-label: IC50

Please review the entries below; each comes with its answer.
{"compound": "C#CCNS(=O)(=O)c1ccc(CCN(Cc2cc(Cl)ccc2[N+](=O)[O-])C(=O)[C@@H](N)Cc2cccs2)cc1", "IC50": "< 1000 nM"}
{"compound": "C#CCNS(=O)(=O)c1ccc(CCN(Cc2cc(Cl)ccc2OCCO)C(=O)Cc2ccsc2)cc1", "IC50": "1000 to 10000 nM"}
{"compound": "C#CCNS(=O)(=O)c1ccc(CCN(Cc2cc(Cl)ccc2C(F)(F)F)C(=O)Cc2ccsc2)cc1", "IC50": "< 1000 nM"}
{"compound": "CNS(=O)(=O)c1cc(CCNC(=O)c2cc(Cl)ccc2OC)co1", "IC50": "1000 to 10000 nM"}
{"compound": "CCCOc1ccc(Cl)cc1CN(CCc1ccc(C(=O)NCc2ccc(OC)cc2)cc1)C(=O)Cc1ccccc1", "IC50": "< 1000 nM"}

Look at this compound and give its reported IC50. `CCCOc1ccc(Cl)cc1CN(CCc1ccc(S(=O)(=O)N2CCNCC2)cc1)C(=O)Cc1ccsc1`
1000 to 10000 nM

Look at this compound and give its reported IC50. `C#CCNS(=O)(=O)c1ccc(CCN(Cc2cc(Cl)ccc2[N+](=O)[O-])C(=O)Cc2ccsc2)cc1`
< 1000 nM

Look at this compound and give its reported IC50. `CCCCCC(=O)N(CCc1ccc(S(=O)(=O)NC)cc1)Cc1cc(Cl)ccc1OC`
1000 to 10000 nM

Look at this compound and give its reported IC50. `C#CCNC(=O)c1ccc(CCN(Cc2cc(Cl)ccc2OCCC)C(=O)Cc2ccsc2)cc1`
< 1000 nM

Look at this compound and give its reported IC50. `C=CCN(CCc1ccc(S(=O)(=O)NC)cc1)C(=O)c1cc(Cl)ccc1C(=O)c1ccccc1`
1000 to 10000 nM
